System: Klebsiella pneumoniae
experimentNotes: Susceptibility of hospital Klebsiella pneumoniae isolates (annual antibiogram)
Type: cell-based
conditionLabel: K. pneumoniae isolates; 2000, year prior to program
recordedEndpoint: Percent Susceptible in 2000 (%)
Please respond with the number in % and leave the unit unwritten.

Here are 3 compounds together with their reported answers.
{"compound": "CO/N=C(\\C(=O)N[C@@H]1C(=O)N2C(C(=O)O)=C(COC(N)=O)CS[C@H]12)c1ccco1", "recordedEndpoint": "Percent Susceptible in 2000", "measuredNumber": 78}
{"compound": "CC(C)(O/N=C(\\C(=O)N[C@@H]1C(=O)N2C(C(=O)[O-])=C(C[n+]3ccccc3)CS[C@H]12)c1csc(N)n1)C(=O)O", "recordedEndpoint": "Percent Susceptible in 2000", "measuredNumber": 85}
{"compound": "CO/N=C(\\C(=O)N[C@@H]1C(=O)N2C(C(=O)O)=C(CSc3nc(=O)c(=O)[nH]n3C)CS[C@H]12)c1csc(N)n1", "recordedEndpoint": "Percent Susceptible in 2000", "measuredNumber": 85}

In: Entry "NC[C@H]1O[C@H](O[C@H]2[C@H](O)[C@@H](O[C@H]3O[C@H](CO)[C@@H](O)[C@H](N)[C@H]3O)[C@H](N)C[C@@H]2N)[C@H](N)C[C@@H]1O" , system Klebsiella pneumoniae: what Percent Susceptible in 2000 was measured?
Out: 90

In: Entry "C[C@H]1COc2c(N3CCN(C)CC3)c(F)cc3c(=O)c(C(=O)O)cn1c23" , system Klebsiella pneumoniae: what Percent Susceptible in 2000 was measured?
Out: 82

In: Entry CO/N=C(\C(=O)N[C@@H]1C(=O)N2C(C(=O)[O-])=C(C[N+]3(C)CCCC3)CS[C@H]12)c1csc(N)n1 [Cefepime] , system Klebsiella pneumoniae: what Percent Susceptible in 2000 was measured?
Out: 94

Entry source: patent US20070179810A1
